System: T-47D breast
Assay: NCI-60 one-dose screen, 48 h (100 = growth as untreated, 0 = no growth, -100 = all killed)
Conditions: 10 µM unless noted
Compounds without any hit were thinned out: in the full panel of roughly 83,000, 20% have a hit.
Our labelling divides records by growth into ranges: c1 (below 50%), c2 (50% to below 80%), c3 (80% or more)

Illustrative cases are given below, each with its answer.
compound	group
CCOC(=O)C1=C(C)NC(=O)NC1c1c(Cl)n(CCCl)c2ccccc12 (stereo not given)	c3
COc1ccc(C/C(C)=C(\c2ccc(Cl)cc2)c2ccc(OCCN3CCCCC3)cc2)cc1	c2
COC(=O)[C@]1(C)CCC[C@]2(C)[C@H]3C[C@H]4C(C(C)C)=C[C@]3(CC[C@H]21)[C@@H]1C(=O)CC[C@H](OCCC#N)[C@@H]14	c2
COC(=O)c1c(C)c2n(c1C)C(=O)C(c1ccccc1)=C2	c1
Oc1c(I)cc(I)cc1CNCc1ccccn1	c1
CC(C)c1ccc(-n2c(=S)[nH]c3sc4cc(O)ccc4c3c2=O)cc1	c3

Q: Which category does the recorded growth put CCn1c(SCC(=O)N/N=C(\C)c2ccc(Cl)cc2)nc2c1c(=O)n(C)c(=O)n2C in?
Ans: c3

Q: Which category does the recorded growth put Nc1nc2ccccc2c2c(=O)c3cccc(Cl)c3sc12 in?
Ans: c1

Q: Which category does the recorded growth put CCOC(=O)C1=C(c2ccccc2)N=C2SC=C(c3ccc(Cl)cc3)N2C1c1ccc(Br)cc1 (stereo not given) in?
Ans: c2

* * *

Tested on: MDA-MB-435 melanoma
Experiment: NCI-60 one-dose screen, 48 h (100 = growth as untreated, 0 = no growth, -100 = all killed)
Conditions: 10 µM unless noted
Description: Growth inhibition of the MDA-MB-435 human Melanoma tumor cell line is measured as a screen for anti-cancer activity. Cells are grown in 96 well plates and exposed to the test compound for 48 hours. Compounds are tested at a single concentration, which is 10^-5 M for most compounds. The reported endpoint is percent growth (GI% or GIPRCNT), where numbers from 0 - 100% represent growth inhibition, and numbers from -100% - 0 represent cell death. […]
About 83,000 compounds went through this panel and 20% of them were active in at least one assay; those are over-represented in the sample as a whole. Activity calls are given as the source filed them. Rule for the calls: active = growth percent below 10; inactive = the rest.
Reported values of growth for individual entries

These solved cases illustrate the format of a correct answer.
molecule	system	growth
O=C(OC(CO)C(=O)NC12CC3CC(CC(C3)C1)C2)c1ccc(Cl)cc1 (stereo not given)	MDA-MB-435 melanoma	94.6% (inactive)
CC(=O)c1c(C)nc2ccccc2c1/C=C/c1ccc(F)cc1	MDA-MB-435 melanoma	103% (inactive)
COc1ccc(OC)c(/C=N/Nc2ncnc3c2c(C)nn3C)c1	MDA-MB-435 melanoma	105% (inactive)
CCC(=O)Oc1ccc(-c2ccccc2)cc1Br	MDA-MB-435 melanoma	109% (inactive)
Nc1nc(-c2ccc(Cl)cc2)nc2c1sc(=S)n2-c1ccccc1	MDA-MB-435 melanoma	57.4% (inactive)
COc1ccc(/C=C/C(=O)c2cccc(OCCCCOc3cccc(C(=O)/C=C/c4ccc(OC)c(OC)c4)c3)c2)cc1OC	MDA-MB-435 melanoma	75.5% (inactive)

Just so you know, measured growth for Nc1ncc(-c2ccc3ncnc(Nc4cccc(Cl)c4)c3c2)cn1 came out at 55.6% (inactive)

Just so you know, measured growth for COc1ccc(/C=C(\C#N)n2nnc3ccc(Cl)cc32)cc1 came out at -22.8% (active)

Just so you know, measured growth for C#Cc1c2c(c(OC)c3c1OCO3)[C@H]([C@H]1OC(=O)c3c1ccc(OC)c3OC)N(C)CC2 came out at 7.84% (active)

Just so you know, measured growth for Cn1ccnc1C(=O)/C=C/c1ccc(C(=O)Nc2ccccc2O)cc1 came out at 69.3% (inactive)
